Recorded values, source patent US20250090699A1.

Molecular target: human FAP (Homo sapiens)
Sequence (Q12884 26-760): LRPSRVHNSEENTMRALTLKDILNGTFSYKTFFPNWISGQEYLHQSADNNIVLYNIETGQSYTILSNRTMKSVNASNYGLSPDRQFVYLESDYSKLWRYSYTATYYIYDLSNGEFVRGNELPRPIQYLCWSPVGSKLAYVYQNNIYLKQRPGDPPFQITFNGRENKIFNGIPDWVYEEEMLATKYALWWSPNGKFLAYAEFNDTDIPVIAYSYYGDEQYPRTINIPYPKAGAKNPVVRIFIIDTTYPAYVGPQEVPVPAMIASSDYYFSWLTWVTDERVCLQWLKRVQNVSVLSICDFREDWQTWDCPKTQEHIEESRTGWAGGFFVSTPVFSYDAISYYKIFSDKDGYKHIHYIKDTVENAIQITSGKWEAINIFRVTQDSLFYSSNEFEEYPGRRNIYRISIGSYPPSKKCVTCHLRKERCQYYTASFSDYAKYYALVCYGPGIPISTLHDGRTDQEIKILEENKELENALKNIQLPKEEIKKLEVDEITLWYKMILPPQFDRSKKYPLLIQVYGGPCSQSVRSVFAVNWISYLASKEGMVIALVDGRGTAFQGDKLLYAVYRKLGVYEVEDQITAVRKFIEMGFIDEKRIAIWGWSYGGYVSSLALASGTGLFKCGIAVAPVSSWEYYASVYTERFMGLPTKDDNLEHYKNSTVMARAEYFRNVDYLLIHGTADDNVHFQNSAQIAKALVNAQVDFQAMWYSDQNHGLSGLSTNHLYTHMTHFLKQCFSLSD
Counter-ions that a name gives are not always drawn. Starred links: 1 amine or outer side, 2 acyl side, 3 side chain; linkers in the order of their positions; H or OH if unused. Non-standard residues stand in square brackets, D forms with d. Residues, ends and D or L forms follow the SMILES beside them. Groups on a side chain read outwards from the residue. *: point of attachment. DOTA = O=C(O)CN1CCN(CC(=O)O)CCN(CC(=O)*)CCN(CC(=O)O)CC1; NODAGA = O=C(O)CN1CCN(CC(=O)O)CCN(C(CCC(=O)*)C(=O)O)CC1; Trp(7-Cl) = N[C@@H](Cc1c[nH]c2c(Cl)cccc12)C(=O)O; Trp(6-OH) = N[C@@H](Cc1c[nH]c2cc(O)ccc12)C(=O)O; Phe(4-CH2NH2) = NCc1ccc(C[C@H](N)C(=O)O)cc1; Piperazinyl(4-CH2COOH) = O=C(O)CN1CCN(*)CC1; AEF = NCCOc1ccc(C[C@H](N)C(=O)O)cc1; mTyr = N[C@@H](Cc1cccc(O)c1)C(=O)O; NMeCba = CN[C@@H](CC1CCC1)C(=O)O; NMeF = CN[C@@H](Cc1ccccc1)C(=O)O; Aoc(2) = CCCCCC[C@H](N)C(=O)O; Ahp(2) = CCCCC[C@H](N)C(=O)O; hSer = N[C@@H](CCO)C(=O)O; AEEA = NCCOCCOCC(=O)O; CO = O=C([*:1])[*:2]; Propyl = CCC*

COMPOUND	IC50 / nM
CCCOCC[C@@H]1NC(=O)[C@H](Cc2ccc(CNC(=O)COCCOCCNC(=O)CCC(C(=O)O)N3CCN(CC(=O)O)CCN(CC(=O)O)CC3)cc2)NC(=O)[C@H](Cc2ccccc2)N(C)C(=O)CNC(=O)CNC(=O)[C@H]2CCCN2C(=O)[C@H](CC(=O)O)NC(=O)[C@H](CCCCNC(=O)N2CCN(CC(=O)O)CC2)NC(=O)CNC(=O)[C@H](Cc2c[nH]c3ccccc23)NC1=O (some centres unmarked) [Example B33] (cyclo(D[dP]GG[NMeF][Phe(4-CH2NH2)]([AEEA-NODAGA])[hSer](Propyl)WGK([CO-Piperazinyl(4-CH2COOH)])))	0.015
CCCCC[C@@H]1NC(=O)[C@H](Cc2ccc(O)cc2)NC(=O)[C@H](Cc2ccccc2)N(C)C(=O)CNC(=O)CNC(=O)[C@H]2CCCN2C(=O)[C@H](C)NC(=O)[C@H](Cc2ccc(O)cc2)NC(=O)CNC(=O)[C@H](Cc2c[nH]c3ccccc23)NC1=O [Example A56] (cyclo(A[dP]GG[NMeF]Y[Ahp(2)]WGY))	4.2
CCCCC[C@@H]1NC(=O)[C@H](Cc2ccc(O)cc2)NC(=O)[C@H](Cc2ccccc2)N(C)C(=O)[C@H](CCC(=O)O)NC(=O)[C@H](CCCCN)NC(=O)[C@H]2CCCN2C(=O)[C@H](CC(=O)O)NC(=O)[C@H](Cc2ccc(O)cc2)NC(=O)CNC(=O)[C@H](Cc2c[nH]c3ccccc23)NC1=O [Example A21, TFA salt] (cyclo([Ahp(2)]WGYD[dP]KE[NMeF]Y))	5.7
CCCCC[C@@H]1NC(=O)[C@H](Cc2ccc(OCCN)cc2)NC(=O)[C@H](Cc2ccccc2)N(C)C(=O)CNC(=O)CNC(=O)[C@H]2CCCN2C(=O)[C@H](CC(=O)O)NC(=O)[C@H](CCCCNC(=O)N2CCN(CC(=O)O)CC2)NC(=O)CNC(=O)[C@H](Cc2c[nH]c3ccccc23)NC1=O [Example A6, TFA salt] (cyclo([AEF][Ahp(2)]WGK([CO-Piperazinyl(4-CH2COOH)])D[dP]GG[NMeF]))	0.071
CCCCC[C@@H]1NC(=O)[C@H](Cc2ccc(CNC(=O)COCCOCCN)cc2)NC(=O)[C@H](Cc2ccccc2)N(C)C(=O)CNC(=O)CNC(=O)[C@H]2CCCN2C(=O)[C@H](CC(=O)O)NC(=O)[C@H](Cc2ccc(O)cc2)NC(=O)CNC(=O)[C@H](Cc2c[nH]c3ccccc23)NC1=O [Example A27] (cyclo([Ahp(2)]WGYD[dP]GG[NMeF][Phe(4-CH2NH2)](AEEA)))	0.045
CCCCC[C@@H]1NC(=O)[C@H](Cc2ccc(O)cc2)NC(=O)[C@H](Cc2ccccc2)N(C)C(=O)CNC(=O)[C@H](CCCCN)NC(=O)[C@H]2CCCN2C(=O)[C@H](CC(=O)O)NC(=O)[C@H](Cc2ccc(O)cc2)NC(=O)CNC(=O)[C@H](Cc2c[nH]c3c(Cl)cccc23)NC1=O [Example A25, TFA salt] (cyclo([Ahp(2)][Trp(7-Cl)]GYD[dP]KG[NMeF]Y))	0.209
CCCCC[C@@H]1NC(=O)[C@H](Cc2ccc(O)cc2)NC(=O)[C@H](Cc2ccccc2)N(C)C(=O)CNC(=O)CNC(=O)[C@H]2CCCN2C(=O)[C@H](CC(N)=O)NC(=O)[C@H](Cc2ccc(O)cc2)NC(=O)CNC(=O)[C@H](Cc2c[nH]c3ccccc23)NC1=O [Example A58] (cyclo([Ahp(2)]WGYN[dP]GG[NMeF]Y))	19
CCCCC[C@@H]1NC(=O)[C@H](Cc2ccc(O)cc2)NC(=O)[C@H](Cc2ccccc2)N(C)C(=O)CNC(=O)[C@H](CCCCN)NC(=O)[C@H]2CCCN2C(=O)[C@H](CC(=O)O)NC(=O)[C@H](Cc2ccc(O)cc2)NC(=O)CNC(=O)[C@H](Cc2c[nH]c3cc(O)ccc23)NC1=O [Example A24, TFA salt] (cyclo([Ahp(2)][Trp(6-OH)]GYD[dP]KG[NMeF]Y))	0.37
CCCCCC[C@@H]1NC(=O)[C@H](Cc2ccc(CNC(=O)COCCOCCNC(=O)CN3CCN(CC(=O)O)CCN(CC(=O)O)CCN(CC(=O)O)CC3)cc2)NC(=O)[C@H](Cc2ccccc2)N(C)C(=O)CNC(=O)CNC(=O)[C@H]2CCCN2C(=O)[C@H](CC(=O)O)NC(=O)[C@H](CCCCNC(=O)N2CCN(CC(=O)O)CC2)NC(=O)CNC(=O)[C@H](Cc2c[nH]c3ccccc23)NC1=O [Example B1] (cyclo(GG[NMeF][Phe(4-CH2NH2)]([AEEA-DOTA])[Aoc(2)]WGK([CO-Piperazinyl(4-CH2COOH)])D[dP]))	0.005
CCCCC[C@@H]1NC(=O)[C@H](Cc2ccc(O)cc2)NC(=O)[C@H](CC2CCC2)N(C)C(=O)CNC(=O)CNC(=O)[C@H]2CCCN2C(=O)[C@H](CC(=O)O)NC(=O)[C@H](Cc2ccc(O)cc2)NC(=O)CNC(=O)[C@H](Cc2c[nH]c3ccccc23)NC1=O [Example A62] (cyclo([Ahp(2)]WGYD[dP]GG[NMeCba]Y))	0.063
CCCCC[C@@H]1NC(=O)[C@H](Cc2ccc(O)cc2)NC(=O)[C@H](Cc2ccccc2)N(C)C(=O)CNC(=O)CNC(=O)[C@H]2CCCN2C(=O)[C@H](CC(=O)O)NC(=O)[C@H](Cc2cccc(O)c2)NC(=O)CNC(=O)[C@H](Cc2c[nH]c3ccccc23)NC1=O [Example A14] (cyclo([Ahp(2)]WG[mTyr]D[dP]GG[NMeF]Y))	0.092
